// data source = ChEMBL document CHEMBL1138567

Give measured zone of inhibition at 75 µg/mL for each item. Keep answers brief.
test system: Proteus mirabilis; assay: Antimicrobial activity against Proteus mirabilis at 75 ug/ml after 24 hrs by agar diffusion method; assay type: functional; settings: read-out: IZ
Numbers only here, please. The scale is mm.

Prompt: Look up zone of inhibition at 75 µg/mL for this molecule: `CN1C[C@@H](c2ccc(Br)cc2)[C@@]2(CCc3c([nH]c4ccccc34)C2=O)[C@]12C(=O)c1cccc3cccc2c13`
Completion: 18

Prompt: Endpoint output: zone of inhibition at 75 µg/mL of `CN1C[C@@H](c2ccc([N+](=O)[O-])cc2)[C@@]2(CCc3c([nH]c4ccccc34)C2=O)C12C(=O)c1ccccc1C2=O` . Value?
Completion: 18

Prompt: Quick check: zone of inhibition at 75 µg/mL of `CN1C[C@@H](c2ccccc2)[C@@]2(CCc3c([nH]c4ccccc34)C2=O)[C@]12C(=O)Nc1ccccc12` ?
Completion: 14

Prompt: So what does the record say about zone of inhibition at 75 µg/mL for `COc1ccc([C@@H]2CN(C)C3(C(=O)c4ccccc4C3=O)[C@]23CCc2c([nH]c4ccccc24)C3=O)cc1` ?
Completion: 17

Prompt: Please report the recorded zone of inhibition at 75 µg/mL for `CN(C)[C@@H]1C(O)=C(C(N)=O)C(=O)[C@@]2(O)C(O)=C3C(=O)c4c(O)cccc4[C@@](C)(O)[C@H]3C[C@@H]12` .
Completion: 28

Prompt: Request the reported zone of inhibition at 75 µg/mL associated with `CN1C[C@@H](c2ccc(Br)cc2)[C@@]2(CCc3c([nH]c4ccccc34)C2=O)C12C(=O)c1ccccc1C2=O`
Completion: 14

Prompt: Need zone of inhibition at 75 µg/mL of `CN1C[C@@H](c2ccc(Cl)cc2)[C@@]2(CCc3c([nH]c4ccccc34)C2=O)[C@]12C(=O)c1cccc3cccc2c13` , thanks.
Completion: 24

Prompt: So what does the record say about zone of inhibition at 75 µg/mL for `CN1C[C@@H](c2ccc(Cl)cc2)[C@@]2(CCc3c([nH]c4ccccc34)C2=O)C12C(=O)c1ccccc1C2=O` ?
Completion: 14

Prompt: Record request: zone of inhibition at 75 µg/mL value, item `CN1C[C@@H](c2ccc(Br)cc2)[C@@]2(CCc3c([nH]c4ccccc34)C2=O)[C@]12C(=O)Nc1ccccc12`
Completion: 16

Prompt: Param item = `CN1C[C@@H](c2ccccc2)[C@@]2(CCc3c([nH]c4ccccc34)C2=O)C12C(=O)c1ccccc1C2=O` ; retrieve measured zone of inhibition at 75 µg/mL.
Completion: 13

Prompt: For the molecule `CN1C[C@@H](c2ccc([N+](=O)[O-])cc2)[C@@]2(CCc3c([nH]c4ccccc34)C2=O)[C@]12C(=O)Nc1ccccc12` , what zone of inhibition at 75 µg/mL is on record?
Completion: 16

Prompt: GET /values?readout=zone of inhibition at 75 µg/mL&item= `CN1C[C@@H](c2ccc(Cl)cc2)[C@@]2(CCc3c([nH]c4ccccc34)C2=O)[C@]12C(=O)Nc1ccccc12`
Completion: 18
